Each entry below carries its recorded MIC.
# Tested on: Staphylococcus epidermidis CCM 4418 (ATCC 12228)
# experimental.protocol: Antibacterial microdilution broth method, SE
# Type: cell-based
# particulars: 24 h, read-out: MIC SE

In the examples that follow, each entry is paired with its recorded MIC.
Query: MIC; subject: COC(=O)[C@H](NC(=O)c1cnccn1)C(C)C [PC-D-Val-Me, methyl (pyrazine-2-carbonyl)-D-valinate]
> 500 µM

Query: MIC; subject: CCOC(=O)CC[C@H](NC(=O)c1cnccn1)C(=O)OCC [PC-L-Glu-diEt]
> 500 µM

Query: MIC; subject: COC(=O)[C@H](CCSC)NC(=O)c1cnccn1 [PC-L-Met-Me]
> 500 µM

Query: MIC; subject: COC(=O)[C@H](COCc1ccccc1)NC(=O)c1cnccn1 [PC-L-OBn-Ser-Me]
> 250 µM

Query: MIC; subject: CCOC(=O)CNC(=O)c1cnccn1 [PC-Gly-Et, ethyl (pyrazine-2-carbonyl)glycinate]
> 500 µM

Others:
Query: MIC; subject: COC(=O)CC[C@@H](NC(=O)c1cnccn1)C(=O)OC [PC-D-Glu-diMe]
> 500 µM

Query: MIC; subject: CCOC(=O)[C@@H](Cc1c[nH]c2ccccc12)NC(=O)c1cnccn1 [PC-D-Trp-Et]
> 500 µM

Query: MIC; subject: CCOC(=O)[C@H](C)NC(=O)c1cnccn1 [PC-L-Ala-Et, ethyl (pyrazine-2-carbonyl)-L-alaninate]
250 µM

Source of measurements: paper PMC7181131
